biological target: Hsp70 (Homo sapiens, UniProt P0DMV8); test: SPR affinity measurement, biotinylated compounds immobilized on a streptavidin chip, Hsp70 analyte; assay type: binding; conditions: compound immobilized on streptavidin chip, values in parentheses have chi2 > 10
Sequence (P0DMV8 whole entry): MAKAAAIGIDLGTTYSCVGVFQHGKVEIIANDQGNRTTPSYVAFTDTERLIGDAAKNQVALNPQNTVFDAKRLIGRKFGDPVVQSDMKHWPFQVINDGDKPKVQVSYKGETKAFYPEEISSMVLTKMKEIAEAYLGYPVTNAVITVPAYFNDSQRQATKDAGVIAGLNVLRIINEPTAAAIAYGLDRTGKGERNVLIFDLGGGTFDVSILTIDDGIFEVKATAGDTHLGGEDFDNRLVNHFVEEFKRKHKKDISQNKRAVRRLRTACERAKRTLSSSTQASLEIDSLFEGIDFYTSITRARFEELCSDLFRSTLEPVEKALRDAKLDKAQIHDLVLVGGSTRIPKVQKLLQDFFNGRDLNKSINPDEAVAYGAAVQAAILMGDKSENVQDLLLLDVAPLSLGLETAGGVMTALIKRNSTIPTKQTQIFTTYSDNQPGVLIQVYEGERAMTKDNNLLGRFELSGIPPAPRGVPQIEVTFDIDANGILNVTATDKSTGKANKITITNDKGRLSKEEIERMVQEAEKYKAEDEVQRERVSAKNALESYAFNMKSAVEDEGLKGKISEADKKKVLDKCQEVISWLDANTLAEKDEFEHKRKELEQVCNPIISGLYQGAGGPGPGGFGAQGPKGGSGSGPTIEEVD
quantity name: Kd (nM)

molecule	measured result
COc1ccc(C=CC(=O)NCC(NC(=O)c2cccc(NS(=O)(=O)c3ccc(-c4ccccc4)cc3)c2)C(=O)NCCCCC(NC(=O)COCCOCCNC(=O)CCCCC2SCC3NC(=O)NC32)C(N)=O)cc1OC (centres unmarked) [Compound 14a]	2.88

1. NC(=O)C(CCCCNC(=O)C(CCCCNC(=O)c1ccc2[nH]nc(Br)c2c1)NS(=O)(=O)c1ccc(-c2ccccc2)cc1)NC(=O)COCCOCCNC(=O)CCCCC1SCC2NC(=O)NC21 (centres unmarked) [Compound 7a]
2. CSc1nnc(CCCOC(=O)NCC(NC(=O)CC2=C(C)C(=Cc3ccc([S+](C)[O-])cc3)c3ccc(F)cc32)C(=O)NCCCCC(NC(=O)COCCOCCNC(=O)CCCCC2SCC3NC(=O)NC32)C(N)=O)n1-c1ccc(Cl)cc1Cl (centres unmarked) [Compound 4a]
3. NC(=O)C(CCCCNC(=O)C(CNC(=O)c1ccc2[nH]nc(Br)c2c1)NC(=O)c1cccc(NC(=O)CCC(=O)c2ccc(-c3ccccc3)cc2)c1)NC(=O)COCCOCCNC(=O)CCCCC1SCC2NC(=O)NC21 (centres unmarked) [Compound 9a]
Returns the items ordered by Kd, from maximum to minimum. In your reply, arrange the labels in the requested order.
2, 1, 3

A. COc1ccc(C=CC(=O)NCC(NC(=O)c2ccc(NC(=O)COCC(=O)NC(C)COc3c(C)cccc3C)cc2)C(=O)NCCCCC(NC(=O)COCCOCCNC(=O)CCCCC2SCC3NC(=O)NC32)C(N)=O)cc1OC (centres unmarked) [Compound 10a]
B. Cc1ccc(C(=O)NCC(NC(=O)c2cccc(NS(=O)(=O)c3ccc(Oc4ccccc4)cc3)c2)C(=O)NCCCCC(NC(=O)COCCOCCNC(=O)CCCCC2SCC3NC(=O)NC32)C(N)=O)cc1[N+](=O)[O-] (centres unmarked) [Compound 15a]
// which entry reports the smaller Kd, A or B ? Identify your selection by its label.
B
